B1: TNXB (parent)
chain: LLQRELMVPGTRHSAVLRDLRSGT

variants of: B1; assay: protein stability index of a GFP-peptide fusion (GPS, HEK-293T) (PSI 1-6); higher = more stable; conditions: c terminus: a fixed tail appended;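 note: lentivirally expressed fusions sorted by FACS into six bins by GFP to DsRed ratio, PSI derived from sequencing read proportions per bin multiplied by bin number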
Field: protein stability index. Provide a value for each of the variants that follow.

Task: Identify the reported protein stability index for the following entry. "V8A"
Output: 2.42

Task: Identify the reported protein stability index for the following entry. "R4W"
Output: 1.49

Task: Identify the reported protein stability index for the following entry. "G10D"
Output: 2.85

Task: Identify the reported protein stability index for the following entry. "L2T"
Output: 3.29

Task: Identify the reported protein stability index for the following entry. "V16N"
Output: 3

Task: Identify the reported protein stability index for the following entry. "R18W"
Output: 1.8

Task: Identify the reported protein stability index for the following entry. "Q3S"
Output: 2.61

Task: Identify the reported protein stability index for the following entry. "M7R"
Output: 2.16

Task: Identify the reported protein stability index for the following entry. "G23P"
Output: 2.14

Task: Identify the reported protein stability index for the following entry. "S22K"
Output: 2.77

Task: Identify the reported protein stability index for the following entry. "P9L"
Output: 2.02

Task: Identify the reported protein stability index for the following entry. "S14V"
Output: 2.22

Task: Identify the reported protein stability index for the following entry. "L2E"
Output: 3.95

Task: Identify the reported protein stability index for the following entry. "D19S"
Output: 2.31

Task: Identify the reported protein stability index for the following entry. "E5T"
Output: 1.77

Task: Identify the reported protein stability index for the following entry. "G23E"
Output: 3.05

Task: Identify the reported protein stability index for the following entry. "H13T"
Output: 2.22

Task: Identify the reported protein stability index for the following entry. "L17S"
Output: 3.16

Task: Identify the reported protein stability index for the following entry. "L2N"
Output: 3.34

Task: Identify the reported protein stability index for the following entry. "R18G"
Output: 2.44

Task: Identify the reported protein stability index for the following entry. "L17C"
Output: 2.54

Task: Identify the reported protein stability index for the following entry. "T11H"
Output: 2.68

Task: Identify the reported protein stability index for the following entry. "S14D"
Output: 2.66
